Reported Relative EC50 values for the following binders.
System Tested: T1, human CCR8 (human, UniProt P51685 1-355)
T1 construct: the assay field says which; also called hCCR8; huCCR8
Assay Comment: flow cytometry, CHO-huCCR8.Gna15 cells, relative to rb.Ab5
Reply numerically in ratio, unit not repeated.

{"Binder": "hu.Ab5.H1L5 (antibody, human IgG1, kappa, V domains shown) VH: EQQLLESGGGLVQPGGSLRLSCAVSGIDLSTYAMGWVRQAPGKGLEWIGLIHRSGRTYYATWAKGRFTISKDSSKTTVYLQMNSLRAEDTAVYFCTRSYPDYSATASIWGPGTTVTVSS VL: DIQMTQSPSSLSASVGDRVTITCQASENIANALAWYQQKPGKAPKLLIYGASNLASGVPSRFSGSGSGTDFTFTISSLQPEDIATYYCQQAYYGNSFVEGTFGGGTKVEIKR", "Units": "ratio", "Observed Result": 0.3}
{"Binder": "rb.Ab5 (antibody, V domains shown, Rabbit variable regions; also called parental rabbit antibody Ab5) VH: QSVEESGGRLVSPGTPLTLTCTVSGIDLSTYAMGWVRQAPGKGLEWIGLIHRSGRTYYATWAKGRFTISKTSSTTVDLKITSPTTEDTATYFCTRSYPDYSATASIWGPGTLVTVSS VL: DIVVTQTPASVEAAVGGTVTIKCQASENIANALAWYQQKSGQPPMFLIYGASNLASGVSSRFKGSGSGTEFTLTISDLECADAAVYYCQCAYYGNSFVEGTFGGGTEVVVK", "Units": "ratio", "Observed Result": 1}

Relative EC50 reported for this binder hu.Ab5.H1L3 (antibody, human IgG1, kappa, V domains shown) VH: EQQLLESGGGLVQPGGSLRLSCAVSGIDLSTYAMGWVRQAPGKGLEWIGLIHRSGRTYYATWAKGRFTISKDSSKTTVYLQMNSLRAEDTAVYFCTRSYPDYSATASIWGPGTTVTVSS VL: DIQVTQSPSSLSASVGDRVTITCQASENIANALAWYQQKPGKAPKFLIYGASNLASGVPSRFSGSGSGTDFTFTISSLQPEDIATYYCQQAYYGNSFVEGTFGGGTKVEIKR : 1.5
